- System: E. coli ATCC 25922
- Assay Method Text: Bactericidal activity test (MBC measurement)
- Type: cell-based, Escherichia coli
- Condition Label: Escherichia coli, ATCC25922, 1 min; E. coli ATCC 25922, action time 1 min; read-out: MBC
Property: MBC (µg/mL)
Reply with just the number (in µg/mL).

Give MBC for the following compound: `CC(=O)O.CCCCCCCCNC1=NC(C)(C)NC(N(CC)Cc2ccccc2)=N1` 18.8

Give MBC for the following compound: `CCCCCCCCCCCCNC1=NC(N2CCOCC2)=NCN1` 12.5

Give MBC for the following compound: `CCCCCCCCCNC(=N)NC(=N)N(C)Cc1ccccc1.Cl.Cl` 12.5

Give MBC for the following compound: `CCCCCCCCN(C)C(=N)NC(=N)NCc1ccc(Cl)c(Cl)c1.Cl` 6.25

Give MBC for the following compound: `CCCCCCCCN(C)C(=N)/N=C(\N)NCc1ccc(Cl)cc1.Cl` 6.25

Give MBC for the following compound: `CCCCCCCCCCNC1=NC(C)(C)NC(N(C)CCC)=N1` 18.8

Give MBC for the following compound: `CCCCCCCCNC1=NC(C)(C)NC(N(C)CCc2ccccc2)=N1` 25

Give MBC for the following compound: `CC(=O)O.CCCCCCCCN(C)C1=NC(C)(C)NC(NCc2ccc(Cl)c(Cl)c2)=N1` 6.25

Give MBC for the following compound: CCCCCCCCN(C)C1=NC(C)(C)NC(NCc2ccc(Cl)cc2)=N1 [Example 1, acetate] 12.5

Give MBC for the following compound: `CC(=O)O.CCCCCCCCCCCCNC1=NC(N2CCN(C)CC2)=NC(C)(C)N1` 25

Give MBC for the following compound: `CCCCCCCCCCCCCCN(C)C1=NC(C)(C)NC(N)=N1.Cl` 12.5

Give MBC for the following compound: `CCCCCCCCCCNC1=NC(N2Cc3ccccc3C2)=NC(C)(C)N1` 18.8

Give MBC for the following compound: `CCCCCCCCCCCNC1=NC(C)(C)NC(N(C)Cc2ccc(N)cc2)=N1.Cl.Cl` 18.8

Give MBC for the following compound: `CC(=O)O.CCCCCCCCCCNC1=NC(N2CCCCC2)=NC(C)(C)N1` 18.8
